Conditions: buffer; pH 7.4; 200.0 µM
Label scheme for solubility kinetic: Low (below 10 µg/mL), Mid (10 µg/mL to below 30 µg/mL), High (30 µg/mL or more)

// return the class label for "O=S(=O)(Nc1cccc(CCc2ccccn2)c1)c1ccc(Cl)cc1"
Mid

// return the class label for "Cc1nnc(SCC(=O)Nc2ccccc2)n(N)c1=O"
High

// return the class label for "Cc1c(-c2cccc(Cl)c2)nc2ccccc2c1C(=O)NC1CC1"
High

// return the class label for CCC(C(=O)Nc1ccc(C(=O)N2CCCC2)cc1)c1ccccc1 (stereo unspecified)
High

// return the class label for "CCOC(=O)c1sc(SC)c2c1CCC/C2=N/OC"
Low

// return the class label for "COC(=O)Cn1c2ccc(C)cc2c2nc3ccccc3nc21"
Low

// return the class label for "CN1CCN(C(=O)/C(=C/c2ccco2)NC(=O)c2ccccc2)CC1"
High

// return the class label for "COc1ccccc1NC(=O)c1ccc2nc(C)c(C)nc2c1"
Mid

// return the class label for CC1CC(OCC(O)CN2CCCCC2C)CC(C)(C)C1.Cl (stereo unspecified)
High

// return the class label for "Cc1c(NS(=O)(=O)c2ccc(N)cc2)c(=O)n(-c2ccccc2)n1C"
High

// return the class label for "CN(C)C(=S)Nc1cccc(F)c1"
Mid

// return the class label for "O=C(c1cc(-c2ccncc2)nc2ccccc12)N1CCN(c2ncccn2)CC1"
High

// return the class label for CCC(C)CCCCNC1=NCCS1 (stereo unspecified)
High

// return the class label for "Cn1cccc1C(=O)OCC(=O)N1CCc2ccccc21"
Low

// return the class label for "COCCNc1nc(-c2ccccc2)nc2c1oc1ccccc12.Cl"
Low

// return the class label for "CCC(CC)c1nc2ccccc2c(=O)[nH]1"
High

// return the class label for "Cc1ccc(C(=O)c2cc(Br)ccc2N)cc1"
Low

// return the class label for "O=C(Nn1cnc2ccccc2c1=O)c1ccccc1F"
High

// return the class label for "Cc1ccc(S(=O)(=O)Nc2c(C)nn(C)c2C)cc1C"
High

// return the class label for "Br.Cn1ccnc1SCC(=O)c1ccc(Cl)cc1"
High

// return the class label for Cl.O=C(NC12CC3CC(CC(C3)C1)C2)OC1CN2CCC1CC2 (stereo unspecified)
High

// return the class label for "O=C(COc1ccc(Cl)cc1)NCCc1cnc[nH]1"
High

// return the class label for "O=C(NC1CCCCCCC1)c1cccs1"
Mid

// return the class label for "COc1cccc(NC(=S)N2CCN(S(C)(=O)=O)CC2)c1"
High
